experimental.system: KIT (human) (UniProt P10721)
Sequence (P10721 whole entry, looked up): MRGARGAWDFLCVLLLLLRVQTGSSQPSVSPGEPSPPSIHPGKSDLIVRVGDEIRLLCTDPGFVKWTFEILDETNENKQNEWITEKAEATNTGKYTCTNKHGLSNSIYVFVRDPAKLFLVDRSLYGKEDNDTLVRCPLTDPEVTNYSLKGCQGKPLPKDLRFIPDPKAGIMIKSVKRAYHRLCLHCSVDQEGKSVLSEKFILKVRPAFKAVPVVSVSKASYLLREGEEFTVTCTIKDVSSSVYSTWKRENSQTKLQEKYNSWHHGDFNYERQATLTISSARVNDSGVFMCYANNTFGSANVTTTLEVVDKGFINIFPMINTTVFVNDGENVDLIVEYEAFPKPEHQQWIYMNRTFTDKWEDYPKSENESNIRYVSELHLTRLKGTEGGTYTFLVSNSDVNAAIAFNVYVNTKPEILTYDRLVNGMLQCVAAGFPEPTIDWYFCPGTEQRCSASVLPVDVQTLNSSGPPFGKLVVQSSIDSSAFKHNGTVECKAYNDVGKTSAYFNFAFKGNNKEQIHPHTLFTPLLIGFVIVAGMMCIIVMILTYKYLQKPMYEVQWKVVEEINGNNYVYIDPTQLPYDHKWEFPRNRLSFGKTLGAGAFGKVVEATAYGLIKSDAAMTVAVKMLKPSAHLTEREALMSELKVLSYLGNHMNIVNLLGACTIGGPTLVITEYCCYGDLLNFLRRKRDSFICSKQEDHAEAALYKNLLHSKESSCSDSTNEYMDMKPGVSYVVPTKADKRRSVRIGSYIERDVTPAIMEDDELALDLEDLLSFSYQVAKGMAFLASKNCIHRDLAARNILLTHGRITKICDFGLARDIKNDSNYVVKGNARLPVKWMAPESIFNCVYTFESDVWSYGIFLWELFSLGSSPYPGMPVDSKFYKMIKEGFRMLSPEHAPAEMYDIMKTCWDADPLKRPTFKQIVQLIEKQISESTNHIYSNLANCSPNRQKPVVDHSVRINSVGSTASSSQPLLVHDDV
experimental.protocol: KINOMEscan competition binding
value.type: Kd

| smiles.structure | experimental.system | value.observed |
| --- | --- | --- |
| CCOc1cc2ncc(C#N)c(Nc3ccc(F)c(Cl)c3)c2cc1NC(=O)/C=C/CN(C)C | KIT (human) (UniProt P10721) | > 10 µM |
| Oc1ccc(-c2nc(-c3ccc(F)cc3)c(-c3ccncc3)[nH]2)cc1 | KIT (human) (UniProt P10721) | > 10 µM |

###

experimental.system: PHKG2 (human)
pKd: −log10 of the molar value.

| smiles.structure | pKd |
| --- | --- |
| Oc1ccc(-c2nc(-c3ccc(F)cc3)c(-c3ccncc3)[nH]2)cc1 | < 5.00 |
